Reported values of LTR-III ΔTm for individual entries
- System: HIV-1 LTR-III G-quadruplex (FAM/TAMRA-labeled LTR-III)
- PROTOCOL_DESCRIPTION: FRET melting assay, LTR-III G4
- Type: binding
- TEST_PARAMETERS: Table S1 primary screening, ligand:ODN 50:1, singlicate

- COMPOUND: "CC1=NC(=Cc2ccc(OCc3ccccc3)cc2)C(=O)N1C"
  LTR-III ΔTm: "0 °C"
- COMPOUND: "COc1cc(O)ccc1C=C1N=C(C=C(C#N)c2ccccc2)N(C)C1=O"
  LTR-III ΔTm: "0.2 °C"
- COMPOUND: "CNC(=O)C(=Cc1ccccc1)N=[N+]=[N-] [N 830b]"
  LTR-III ΔTm: "-0.2 °C"
- COMPOUND: "CCOC(=O)CN1C(=O)C(=Cc2ccc(O)c(F)c2)N=C1C"
  LTR-III ΔTm: "-0.3 °C"
- COMPOUND: "CCCC1=NC(=Cc2ccc(O)cc2)C(=O)N1C"
  LTR-III ΔTm: "-0.5 °C"
- COMPOUND: "COc1ccccc1C=CC1=NC(=Cc2ccc(O)cc2)C(=O)N1C"
  LTR-III ΔTm: "0.4 °C"
- COMPOUND: "COc1ccc(C=C2N=C(C)N(C)C2=O)cc1"
  LTR-III ΔTm: "-0.3 °C"
- COMPOUND: "CN1C(=O)C(=Cc2cc(Br)c(O)c(Br)c2)N=C1C=Cc1ccncc1"
  LTR-III ΔTm: "-1.8 °C"
- COMPOUND: "CC1=NC(=Cc2ccc(O)cc2)C(=O)N(O)C1=O"
  LTR-III ΔTm: "-0.2 °C"
- COMPOUND: "CC1=NC(=C(N)c2ccc(Br)cc2)C(=O)N1C"
  LTR-III ΔTm: "-0.5 °C"

---

- Tested on: HIV-1 LTR-III G-quadruplex (FAM/TAMRA-labeled LTR-III)
- PROTOCOL_DESCRIPTION: FRET melting assay, LTR-III G4
- Assay type: binding
- TEST_PARAMETERS: Table S1 primary screening, ligand:ODN 50:1, singlicate
MEASUREMENT_NAME: LTR-III ΔTm (°C)

- CHEMICAL_SMILES: "CCCC1=NC(=C(NB(F)F)c2ccccc2)C(=O)N1"
  SYSTEM_NAME: "HIV-1 LTR-III G-quadruplex (FAM/TAMRA-labeled LTR-III)"
  UNIT_SPEC: "°C"
  EXPERIMENTAL_VALUE: -1.5
- CHEMICAL_SMILES: "COc1ccc(C=C2N=C(CC(C)C)C(=O)N(OC)C2=O)cc1"
  SYSTEM_NAME: "HIV-1 LTR-III G-quadruplex (FAM/TAMRA-labeled LTR-III)"
  UNIT_SPEC: "°C"
  EXPERIMENTAL_VALUE: -2.3
- CHEMICAL_SMILES: "CON1C(=O)C(=Cc2ccc(O)cc2)N=C1CCC(C)C"
  SYSTEM_NAME: "HIV-1 LTR-III G-quadruplex (FAM/TAMRA-labeled LTR-III)"
  UNIT_SPEC: "°C"
  EXPERIMENTAL_VALUE: 0
- CHEMICAL_SMILES: "C=CCOc1ccc(C=C2N=C(C)N(C)C2=O)cc1"
  SYSTEM_NAME: "HIV-1 LTR-III G-quadruplex (FAM/TAMRA-labeled LTR-III)"
  UNIT_SPEC: "°C"
  EXPERIMENTAL_VALUE: 0
- CHEMICAL_SMILES: "CN1C(=O)C(=Cc2ccc(O)cc2)N=C1C=Cc1cc(Cl)c(O)c(Cl)c1"
  SYSTEM_NAME: "HIV-1 LTR-III G-quadruplex (FAM/TAMRA-labeled LTR-III)"
  UNIT_SPEC: "°C"
  EXPERIMENTAL_VALUE: -0.8
- CHEMICAL_SMILES: "O=C1NC(=S)SC1=Cc1ccc(O)c(Cl)c1"
  SYSTEM_NAME: "HIV-1 LTR-III G-quadruplex (FAM/TAMRA-labeled LTR-III)"
  UNIT_SPEC: "°C"
  EXPERIMENTAL_VALUE: 0.6
- CHEMICAL_SMILES: "Br.CC1=NC(=Cc2ccc(N(C)C)cc2)C(=O)N1CCN"
  SYSTEM_NAME: "HIV-1 LTR-III G-quadruplex (FAM/TAMRA-labeled LTR-III)"
  UNIT_SPEC: "°C"
  EXPERIMENTAL_VALUE: 0.2
- CHEMICAL_SMILES: "COc1ccc(O)c(C=C2N=C(C)N(C)C2=O)c1"
  SYSTEM_NAME: "HIV-1 LTR-III G-quadruplex (FAM/TAMRA-labeled LTR-III)"
  UNIT_SPEC: "°C"
  EXPERIMENTAL_VALUE: -0.3
- CHEMICAL_SMILES: "CN1C(=O)C(=Cc2ccc(O)c(F)c2)N=C1c1ccccc1"
  SYSTEM_NAME: "HIV-1 LTR-III G-quadruplex (FAM/TAMRA-labeled LTR-III)"
  UNIT_SPEC: "°C"
  EXPERIMENTAL_VALUE: 0

These measurements were taken from paper PMC8533149.
